Test system: K562
ASSAY_INFO: Compound was evaluated for cytotoxic activity against K562 human chronic myelogenous leukemia cell line using MTT assay
Assay type: functional, cell-based
For each entry below, report its log10 of IC50 value.
The figures below represent log10 of IC50, where IC50 is stated in nM.

Reading of log10 of IC50 for COc1ccc(/C=C(\C)C(=O)c2cc(OC)c(OC)c(OC)c2)cc1O with K562: -0.68

Simply: COc1cc(C(=O)/C=C/c2ccc3c(c2)OCCO3)cc(OC)c1OC , K562, log10 of IC50 = 1.90

Result for COc1cc(C(=O)/C(C)=C/c2ccc3c(c2)OCCO3)cc(OC)c1OC , tested on K562, log10 of IC50: 1.08

Per the reported K562 data, COc1cc(C(=O)/C(C)=C/c2ccc3c(c2)OCO3)cc(OC)c1OC has log10 of IC50 of 1.15

Fill in: K562 log10 of IC50 for COc1ccc(/C=C/C(=O)c2cc(OC)c(OC)c(OC)c2)cc1O = 0.63

Lab entry: K562 assay, compound COc1cc(C(=O)/C=C/c2ccc3c(c2)OCO3)cc(OC)c1OC , log10 of IC50 = 2.48

Form: item COc1ccc(OC)c(C(=O)/C(C)=C/c2ccc(N(C)C)cc2)c1 ; test system K562; log10 of IC50: 1.04

The compound COc1ccc(OC)c(C(=O)/C=C/c2ccc(N(C)C)cc2)c1 , when measured on K562, yielded log10 of IC50 of 1.56
